# assayedTarget: Albumin (Bos taurus)
# assayProcedure: bovine serum albumin binders on microarray, profiling panel, artefact control for SMM control protein annotation, biochemical, small-molecule microarray, Alexa647 label, 635/667 nm fluorescence (AID 1118);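 also: score merges 667 nm emission intensity and signal-to-noise per printed compound spot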
# experimentalSetup: BSA-A647 binding, fluorescence 635 nm, higher = more signal
Decide by composite z-score: equal to or exceeding 0.08 means MET, less means NOT MET.

[
  {
    "compound": "CCN1C(C)=C(C(=O)OC)[C@@H](c2ccccc2)N2C(=O)[C@](O)(C(=O)OC)[C@@H](c3ccccc3)C(C(C)=O)=C12",
    "cat": "NOT MET"
  },
  {
    "compound": "C[N+](C)(C)CCCCNC(=O)[C@H]1C[C@H]2C(=O)NCC(=O)N2[C@H]1c1cccc(OCCO)c1",
    "cat": "NOT MET"
  },
  {
    "compound": "COC(=O)C1=CC(c2ccc(CO)cc2)=CC(c2cccs2)N(Cc2cccc(OC(F)(F)F)c2)C=C1C(=O)OC (stereo not drawn)",
    "cat": "MET"
  },
  {
    "compound": "COc1ccc(C(=O)Nc2ccc(CN3C(=O)[C@]4(O[C@H](CCn5cc(CCO)nn5)[C@@H]([Si](C)(C)c5ccc(OC)cc5)[C@@H]4C)c4ccccc43)cc2)cc1",
    "cat": "NOT MET"
  },
  {
    "compound": "CCc1cccc(NC(=O)O[C@H]2[C@H](OC(=O)Nc3ccccc3)[C@@H](OC(=O)Nc3ccccc3)[C@@H](OC)O[C@@H]2CO)c1",
    "cat": "MET"
  },
  {
    "compound": "CCCC[C@@H]1C[C@H]1[C@@H](NC(=O)c1cccs1)c1ccc(Cl)cc1",
    "cat": "MET"
  },
  {
    "compound": "COC(=O)Cn1c(C(=O)N2CCCC2)cc2c1C[C@H]1CN(C(=O)c3ccccc3)[C@@](Cc3ccccc3)(C(=O)OC)[C@@H]21",
    "cat": "MET"
  }
]

----------
# Test system: Noggin (protein binding on small-molecule microarray)
# assayProcedure: Noggin binders on small-molecule microarray, primary screen, biochemical, 635/667 nm fluorescence (AID 1095);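 also: score merges 667 nm feature fluorescence with signal to noise over triplicate slides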
# experimentalSetup: 635 nm fluorescence, higher = more signal
readoutType: composite z-score

[
  {
    "compound": "COc1ccc(-c2cc3c(c(-c4ccccc4)n2)[Si](C(C)C)(C(C)C)O[C@H]3c2ccccc2)cn1",
    "assayedTarget": "Noggin (protein binding on small-molecule microarray)",
    "readoutType": "composite z-score",
    "reading": 0.47
  },
  {
    "compound": "CC(C)[Si]1(C(C)C)O[C@@H](c2ccccc2)c2cc(C3CC3)nc(-c3ccc(Oc4ccccc4)cc3)c21",
    "assayedTarget": "Noggin (protein binding on small-molecule microarray)",
    "readoutType": "composite z-score",
    "reading": -0.101
  },
  {
    "compound": "C[C@@H]1CC[C@H]2C(=O)N3[C@@H](CC[C@@H](C)[C@@H]3c3cccc(N4CCOCC4)c3)C(=O)N2[C@H]1c1cccc(Br)c1",
    "assayedTarget": "Noggin (protein binding on small-molecule microarray)",
    "readoutType": "composite z-score",
    "reading": 0.964
  },
  {
    "compound": "CC(c1ccccc1)C(O)C1C=CC2C(=O)N(C)C(=O)C2N1N(c1ccccc1)c1ccccc1 (configuration not stated)",
    "assayedTarget": "Noggin (protein binding on small-molecule microarray)",
    "readoutType": "composite z-score",
    "reading": -0.959
  },
  {
    "compound": "CCCC/C=C/[C@H]([C@@H](O)Cc1ccccc1)N(CC#Cc1ccccc1)Cc1ccccc1Br",
    "assayedTarget": "Noggin (protein binding on small-molecule microarray)",
    "readoutType": "composite z-score",
    "reading": -2.07
  },
  {
    "compound": "COc1cc2c(cc1OC)CN(C(=O)[C@H]1[C@@H]3C(=O)O[C@@H](c4ccccc4)[C@@H](c4ccccc4)N3[C@@H](c3ccccc3OCCO)[C@]13C(=O)Nc1ccc(C#CC4(O)CCCCCC4)cc13)CC2",
    "assayedTarget": "Noggin (protein binding on small-molecule microarray)",
    "readoutType": "composite z-score",
    "reading": 1.19
  },
  {
    "compound": "CO[C@@H]1COC(=O)[C@H](C)NC(=O)CC=C[C@@H](C)[C@H](OC)COC(=O)[C@H](C)NC(=O)CC=C[C@H]1C",
    "assayedTarget": "Noggin (protein binding on small-molecule microarray)",
    "readoutType": "composite z-score",
    "reading": 0.705
  },
  {
    "compound": "CSCC[C@@H]1NC(=O)CC=C[C@@H](C)COC(=O)[C@H](CCSC)NC(=O)CC=C[C@@H](C)COC1=O",
    "assayedTarget": "Noggin (protein binding on small-molecule microarray)",
    "readoutType": "composite z-score",
    "reading": 0.877
  },
  {
    "compound": "COCCOC(=O)N1C(=O)[C@@]2(c3cc(C#CCC(C(=O)OC)C(=O)OC)ccc31)[C@H](C(=O)N1CCN(c3ncccn3)CC1)[C@H]1C(=O)O[C@H](c3ccccc3)[C@H](c3ccccc3)N1[C@@H]2c1ccc(O)cc1",
    "assayedTarget": "Noggin (protein binding on small-molecule microarray)",
    "readoutType": "composite z-score",
    "reading": 0.414
  },
  {
    "compound": "COc1ccc([Si](C)(C)[C@H]2[C@H](CC(=O)N(CCO)Cc3ccccc3)O[C@@]3(C(=O)N(C)c4ccccc43)[C@@H]2C)cc1",
    "assayedTarget": "Noggin (protein binding on small-molecule microarray)",
    "readoutType": "composite z-score",
    "reading": 1.72
  },
  {
    "compound": "CO[C@H]1O[C@H](CO)[C@@H](OC(=O)CCc2ccccc2)[C@@H]2OC(=O)[C@H](Cc3cccc(Br)c3)C/C=C/C[C@@H](Cc3cccc(Br)c3)C(=O)O[C@@H]12",
    "assayedTarget": "Noggin (protein binding on small-molecule microarray)",
    "readoutType": "composite z-score",
    "reading": -0.6
  },
  {
    "compound": "C[N+](C)(C)CCCC[C@@H]1NC(=O)[C@H]2C[C@@H](C(=O)NCc3ccc(F)cc3)[C@@H](c3cccc(OCCO)c3)N2C1=O",
    "assayedTarget": "Noggin (protein binding on small-molecule microarray)",
    "readoutType": "composite z-score",
    "reading": 1.62
  },
  {
    "compound": "C=C(COC)/C(=C/C[C@@H](OC(=O)c1ccncc1)c1ccc(OCCO)cc1)c1cc(C(=O)OC)ccc1OC",
    "assayedTarget": "Noggin (protein binding on small-molecule microarray)",
    "readoutType": "composite z-score",
    "reading": 0.861
  },
  {
    "compound": "COC(=O)Cn1c(C(=O)N2CCCC2)cc2c1C[C@H]1CN(C(=O)c3ccccc3)[C@@](Cc3ccc(OC)cc3)(C(=O)OC)[C@@H]21",
    "assayedTarget": "Noggin (protein binding on small-molecule microarray)",
    "readoutType": "composite z-score",
    "reading": -1.02
  },
  {
    "compound": "CC(C)[Si](OCC[C@H]1O[C@]2(C(=O)N(Cc3ccccc3)c3ccccc32)[C@@H](C)[C@@H]1[Si](C)(C)O)(C(C)C)C(C)C",
    "assayedTarget": "Noggin (protein binding on small-molecule microarray)",
    "readoutType": "composite z-score",
    "reading": -0.139
  },
  {
    "compound": "COc1ccc([Si](C)(C)[C@@H]2[C@@H](CCO)O[C@]3(C(=O)N(Cc4ccccc4)c4ccccc43)[C@H]2C)cc1",
    "assayedTarget": "Noggin (protein binding on small-molecule microarray)",
    "readoutType": "composite z-score",
    "reading": 0.0139
  },
  {
    "compound": "NC(=O)NCC#Cc1ccc2c(c1)[C@]1(C(=O)N2)[C@H](C(N)=O)[C@H]2C(=O)O[C@H](c3ccccc3)[C@H](c3ccccc3)N2[C@@H]1c1ccccc1OCCO",
    "assayedTarget": "Noggin (protein binding on small-molecule microarray)",
    "readoutType": "composite z-score",
    "reading": 0.546
  },
  {
    "compound": "CO[C@@H]1COC(=O)[C@H](COCc2ccccc2)NC(=O)CC=C[C@@H](C)[C@H](OC)COC(=O)[C@H](COCc2ccccc2)NC(=O)CC=C[C@H]1C",
    "assayedTarget": "Noggin (protein binding on small-molecule microarray)",
    "readoutType": "composite z-score",
    "reading": 0.63
  },
  {
    "compound": "C=CCNC(=O)[C@@H]1[C@H]2C(=O)O[C@H](c3ccccc3)[C@H](c3ccccc3)N2[C@H](c2ccc(OCCO)cc2)[C@@]12C(=O)N(C(=O)OCCOC)c1ccc(C#CC3(O)CCCCCC3)cc12",
    "assayedTarget": "Noggin (protein binding on small-molecule microarray)",
    "readoutType": "composite z-score",
    "reading": 0.205
  },
  {
    "compound": "CO[C@H]1COC(=O)[C@H](CCSC)NC(=O)CC=C[C@@H](C)COC(=O)[C@@H](OCc2ccccc2)C=C[C@@H]1C",
    "assayedTarget": "Noggin (protein binding on small-molecule microarray)",
    "readoutType": "composite z-score",
    "reading": 1.93
  },
  {
    "compound": "CCCC[C@@H]1C[C@H]1[C@@H](NC(=O)c1cccs1)c1ccc(Cl)cc1",
    "assayedTarget": "Noggin (protein binding on small-molecule microarray)",
    "readoutType": "composite z-score",
    "reading": -1.69
  },
  {
    "compound": "CO[C@@H]1COC(=O)CC=C[C@H](C)COC(=O)[C@H](Cc2ccccc2)NC(=O)CC=C[C@H]1C",
    "assayedTarget": "Noggin (protein binding on small-molecule microarray)",
    "readoutType": "composite z-score",
    "reading": 1.6
  },
  {
    "compound": "Cc1ccc(N2C(=O)c3ccccc3[C@@H](C(=O)NCc3ccccc3)[C@@H]2c2ccc(CO)cc2)nc1",
    "assayedTarget": "Noggin (protein binding on small-molecule microarray)",
    "readoutType": "composite z-score",
    "reading": 0.0163
  },
  {
    "compound": "COc1ccc(-c2ccccc2[C@@H]2N[C@H](C(=O)O)CC[C@H]2C)cc1",
    "assayedTarget": "Noggin (protein binding on small-molecule microarray)",
    "readoutType": "composite z-score",
    "reading": 0.412
  },
  {
    "compound": "COC(=O)[C@@]1(Cc2ccccc2)[C@H]2c3cc(C(=O)N4CCCC4)n(CCN4CNCC4=O)c3C[C@H]2CN1C(=O)c1ccccc1",
    "assayedTarget": "Noggin (protein binding on small-molecule microarray)",
    "readoutType": "composite z-score",
    "reading": -0.113
  },
  {
    "compound": "Cc1ccc([C@@H]2CC=C(C(=O)O)[C@H](c3ccccc3)N2S(=O)(=O)c2ccc(C)cc2)cc1",
    "assayedTarget": "Noggin (protein binding on small-molecule microarray)",
    "readoutType": "composite z-score",
    "reading": -0.971
  },
  {
    "compound": "Cc1ccc(S[C@]2(C(=O)NC(C)C)CC(=O)N(Cc3cc(C(F)(F)F)cc(C(F)(F)F)c3)[C@@H]2c2ccc(CO)cc2I)cc1",
    "assayedTarget": "Noggin (protein binding on small-molecule microarray)",
    "readoutType": "composite z-score",
    "reading": -0.147
  }
]
